# Population Normal (%) per record follows
- System: HEK-293T
- Assay name: Multiplex assay against HEK293T
- Assay type: toxicity, cell-based
- Experimental setup: human, 24 h, 1 µM, compound concentration 1 uM, replicate 2
Test readout: Population Normal (%)

> print(dat)
                                   compound  assayed.system           test.readout  test.result
1  CN(c1cc(C(F)(F)F)nc(OCCC(=O)O)n1)c1cccc2c1CCC2        HEK-293T  Population Normal (%)           95
2  Cc1c(Nc2ccc(S(=O)(=O)N3CCN(C)CC3)cc2F)nc2ccc(-c3cnn(C4CC4)c3)cn2c1=O        HEK-293T  Population Normal (%)           97
3  Cc1c(Nc2ccc(S(=O)(=O)N3CCN(C)CC3)cc2F)nc2ccc(Nc3cnn(C4CC4)c3)cn2c1=O        HEK-293T  Population Normal (%)           94
4  CCOC(=O)CCNc1cc(N2CCc3ccccc3CC2)nc(-c2ccccn2)n1        HEK-293T  Population Normal (%)           97
5  C=CC(=O)Nc1cc(-n2c(=O)ccc3cnc4ccc(-c5ccc(NS(C)(=O)=O)cc5)cc4c32)ccc1C        HEK-293T  Population Normal (%)           96
6  CC(C)[C@H](CO)Nc1nc(Nc2cccc(Cl)c2)c2ncn(C(C)C)c2n1        HEK-293T  Population Normal (%)           96
7  Oc1cccc(-c2nc(N3CCOCC3)c3oc4ncccc4c3n2)c1        HEK-293T  Population Normal (%)           84
8  Cc1ccc(NC(=O)Nc2cc(C(F)(F)F)ccc2F)cc1Nc1ccc2c(c1)NC(=O)/C2=C\c1ccc[nH]1        HEK-293T  Population Normal (%)           95
9  Cc1c(P(=S)(c2ccccc2)c2ccccc2)n2ccccc2[n+]1C/C=C/c1ccccc1.[Br-]        HEK-293T  Population Normal (%)           92
